system: KRas G12C mutant; assay: Ras GTP Binding Domain Inhibition Assay, KRas G12C mutant; settings: at 20 μM; without SOS
PARAMETER MEASURED: KRas G12C mutant: % inh.

{"CPD SMILES": "COCCCCOc1nc(-c2nccn2C)nc2sc(-c3ccn(C(C)C)n3)c(C)c12", "PARAMETER MEASURED": "KRas G12C mutant: % inh.", "MEASURED": "0 (0 = 0% inhibition)"}

====

# maps each entry to its KRas G12C mutant: % inh.
Tested on: KRas G12C mutant
Assay: Ras GTP Binding Domain Inhibition Assay, KRas G12C mutant
Conditions: at 20 μM; without SOS
Procedure: A Ras Superfamily Activity Assay (as disclosed in International Application No. PCT/US2018/038613, filed Jun. 20, 2018, which is incorporated by reference in its entirety) was used as a specific assay to evaluate compounds against the following for the following Ras Superfamily proteins: KRas wild type, KRas Q61H mutant, KRas G12C mutant, KRas G12D mutant, Rac-1, and Rho-A. Buffer-I: • 25 mM Tris-HCl, pH 7.4 • 27 mM KCl • 137 mM NaCl • 1 mM MgCl2 • 1 mM DTT […]
PARAMETER MEASURED: KRas G12C mutant: % inh.

{"CPD SMILES": "COCCCn1c(-c2nccn2C)nc2sc(-c3ccn(C(C)C)n3)c(-c3ccccc3)c2c1=O", "MEASURED": "0 (0 = 0% inhibition)"}
{"CPD SMILES": "COc1cc(Cn2c(-c3nccn3C)nc3sc(-c4ccn(C(C)C)n4)c(C)c3c2=O)ncn1", "MEASURED": "0 (0 = 0% inhibition)"}

====

test system: KRas wild type; assay: Ras GTP Binding Domain Inhibition Assay, KRas wild type; details: at 20 μM; without SOS
PARAMETER MEASURED: KRas wild type: % inh.

{"CPD SMILES": "COCCCOc1nc(-c2nccn2C)nc2sc(-c3ccn(C(C)C)n3)c(-c3ccccc3)c12", "TARGET": "KRas wild type", "PARAMETER MEASURED": "KRas wild type: % inh.", "MEASURED": "0 (0 = 0% inhibition)"}

====

system: KRas G12D mutant; assay: Ras GTP Binding Domain Inhibition Assay, KRas G12D mutant; conditions: at 20 μM; without SOS; Table 8
PARAMETER MEASURED: KRas G12D mutant: % inh.

{"COMPOUND": "COCCCCOc1nc(-c2nccn2C)nc2sc(-c3ccn(C(C)C)n3)c(C)c12", "TARGET": "KRas G12D mutant", "PARAMETER MEASURED": "KRas G12D mutant: % inh.", "MEASURED": "A (A = 1-25% inhibition)"}
{"COMPOUND": "COCCOc1nc(-c2nccn2C)nc2sc(-c3ccn(C(C)C)n3)c(C)c12", "TARGET": "KRas G12D mutant", "PARAMETER MEASURED": "KRas G12D mutant: % inh.", "MEASURED": "0 (0 = 0% inhibition)"}
{"COMPOUND": "COc1cccc(-c2sc3nc(-c4nccn4C)nc(N[C@@H]4CC[C@@H](OC)C4)c3c2-c2ccccc2)c1F (racemic)", "TARGET": "KRas G12D mutant", "PARAMETER MEASURED": "KRas G12D mutant: % inh.", "MEASURED": "A (A = 1-25% inhibition)"}
{"COMPOUND": "COCCCn1c(-c2nccn2C)nc2sc(-c3ccn(C(C)C)n3)c(C)c2c1=O", "TARGET": "KRas G12D mutant", "PARAMETER MEASURED": "KRas G12D mutant: % inh.", "MEASURED": "0 (0 = 0% inhibition)"}

This collection of values is drawn from patent US20240309015A1.
